Tested on: Pseudomonas aeruginosa Walter
Assay: Minimum inhibitory concentration (MIC), serial dilution on Iso-Sensitest agar
Format: cell-based
Details: 37° C., about 20 hours
Recorded MIC for the following molecules
Quick note: give the figure in mg/L, leave out the unit.

Req: Request the reported MIC associated with CN[C@@H]1CC=C[C@@H]2CN(c3c(F)cc4c(=O)c(C(=O)O)cn(C5CC5)c4c3F)C[C@H]21 (relative stereo) [Example 22]
Resp: 2

Consider the additional molecule presented here.
Req: State the recorded MIC for this entry: N[C@@H]1CC=C[C@@H]2CN(c3c(F)cc4c(=O)c(C(=O)O)cn(C5CC5)c4c3Cl)C[C@@H]12 (relative stereo) [Example 12]
Resp: 0.25
